Record type: Ki measurement. Applies to: Serine protease SplB (Staphylococcus aureus, UniProt Q53781)

COc1ccc(OP(=O)(Oc2ccc(OC)cc2)C(CCC(N)=O)NC(=O)OCc2ccccc2)cc1 (racemic): > 200 µM
CC(C)CC(NC(=O)OCc1ccccc1)C(=O)NC(CCC(N)=O)P(=O)(Oc1ccccc1)Oc1ccccc1 (mixture of isomers): > 200 µM
COc1ccc(OP(=O)(Oc2ccc(OC)cc2)C(CCC(N)=O)NC(=O)C(CC(C)C)NC(=O)OCc2ccccc2)cc1 (mixture of isomers): > 200 µM
NC(=O)CCC(NC(=O)OCc1ccccc1)P(=O)(Oc1ccccc1)Oc1ccccc1 (racemic): > 200 µM
CC(C)(C)c1ccc(OP(=O)(Oc2ccc(C(C)(C)C)cc2)C(CCC(N)=O)NC(=O)OCc2ccccc2)cc1 (racemic): > 200 µM
CC(C)CC(NC(=O)OCc1ccccc1)C(=O)NC(CCC(N)=O)P(=O)(Oc1ccc(C(C)(C)C)cc1)Oc1ccc(C(C)(C)C)cc1 (racemic): > 200 µM

Task: Ki for CCc1ccc(OP(=O)(Oc2ccc(CC)cc2)C(CCC(N)=O)NC(=O)OCc2ccccc2)cc1 (racemic) ?
Output: > 200 µM

Task: Need Ki of CCc1ccc(OP(=O)(Oc2ccc(CC)cc2)C(CCC(N)=O)NC(=O)C(CC(C)C)NC(=O)OCc2ccccc2)cc1 (mixture of isomers) , thanks.
Output: > 200 µM

====

- Test method notes: Inhibition of subtilisin using fluorogenic Suc-Ala-Ala-Pro-Phe-AMC as substrate by spectrofluorometry
Readout kind: Ki

Examples from the recorded data:
NC(=O)CCC(NC(=O)OCc1ccccc1)P(=O)(Oc1ccccc1)Oc1ccccc1 (racemic): > 200 µM
CCc1ccc(OP(=O)(Oc2ccc(CC)cc2)C(CCC(N)=O)NC(=O)C(CC(C)C)NC(=O)OCc2ccccc2)cc1 (mixture of isomers): > 200 µM
CC(C)(C)c1ccc(OP(=O)(Oc2ccc(C(C)(C)C)cc2)C(CCC(N)=O)NC(=O)OCc2ccccc2)cc1 (racemic): > 200 µM
COc1ccc(OP(=O)(Oc2ccc(OC)cc2)C(CCC(N)=O)NC(=O)C(CC(C)C)NC(=O)OCc2ccccc2)cc1 (mixture of isomers): 35 µM
COc1ccc(OP(=O)(Oc2ccc(OC)cc2)C(CCC(N)=O)NC(=O)OCc2ccccc2)cc1 (racemic): 111 µM
CCc1ccc(OP(=O)(Oc2ccc(CC)cc2)C(CCC(N)=O)NC(=O)OCc2ccccc2)cc1 (racemic): > 200 µM
CC(C)CC(NC(=O)OCc1ccccc1)C(=O)NC(CCC(N)=O)P(=O)(Oc1ccccc1)Oc1ccccc1 (mixture of isomers): > 200 µM

Let us examine a further case.
Task: May I ask what Ki has been recorded for CC(C)CC(NC(=O)OCc1ccccc1)C(=O)NC(CCC(N)=O)P(=O)(Oc1ccc(C(C)(C)C)cc1)Oc1ccc(C(C)(C)C)cc1 (racemic) ?
Output: > 200 µM

====

Below, each of the compounds is paired with its reported Ratio value.
- Test method notes: Ratio of rate of irreversible step k2 to Ki for subtilisin using fluorogenic Suc-Ala-Ala-Pro-Phe-AMC as substrate by spectrofluorometry

Task: Request the reported Ratio associated with CC(C)(C)c1ccc(OP(=O)(Oc2ccc(C(C)(C)C)cc2)C(CCC(N)=O)NC(=O)OCc2ccccc2)cc1 (racemic)
Output: < 10 M⁻¹ s⁻¹
